- target_entity: human GHSR1a (Homo sapiens)
- method: Aequorin luminescent functional assay (intracellular Ca2+, ghrelin-stimulated)
- condition_details: stable cell line expressing human GHSR1a and apoaequorin; final ghrelin 3x EC50 (20 nM); read-out: Class (based on IC50 values)
pIC50: −log10 of the molar value.
metric_name: pIC50

Would you please look over these solved cases?
>  <molecule>
CCc1ccccc1Oc1ccc2c(c1)C(=O)N(C(C(=O)N1CCC(NCc3ccc(F)cc3)CC1)C(C)C)CC(=O)N2 (centres unmarked)

>  <pIC50>
7.30 to 8.00

$$$$
>  <molecule>
CC(C)[C@H](C(=O)NC1CCN(Cc2ccccc2)CC1)N1CC(=O)Nc2ccc(Oc3ccc(F)cc3)cc2C1=O

>  <pIC50>
7.30 to 8.00

$$$$
>  <molecule>
Cc1cc(F)ccc1Oc1ccc2c(c1)C(=O)N(C(C(=O)NC1CCN(Cc3ccccc3)CC1)C(C)C)Cc1ncc(C)n1-2 (centres unmarked)

>  <pIC50>
≥ 8.00

$$$$
>  <molecule>
CC(C)C(C(=O)N1CCC(NCc2ccc(F)cc2)CC1)N1CCc2ccc(Oc3ccc(F)cc3F)cc2C1=O (centres unmarked)

>  <pIC50>
≥ 8.00

$$$$
>  <molecule>
CC(C)C(CC1CCC(NC2CC2)CC1)N1CCCc2ccc(Oc3ccc(F)cc3F)cc2C1=O (centres unmarked)

>  <pIC50>
≥ 8.00

$$$$

Look up pIC50: Cc1cccc(C)c1Oc1ccc2c(c1)C(=O)N(C(C(=O)N1CCC(NCc3ccc(F)cc3)CC1)C(C)C)CC(=O)N2 (centres unmarked) ≥ 8.00

Look up pIC50: CC(C)C(C(=O)OC1CCN(Cc2ccccc2)CC1)N1CC(=O)Nc2ccc(Oc3ccccc3)cc2C1=O (centres unmarked) 7.30 to 8.00

Look up pIC50: CC(C)C(C(=O)N1CCC(NCCc2ccc(F)cc2)CC1)N1CCc2ccc(Oc3ccc(F)cc3F)cc2C1=O (centres unmarked) ≥ 8.00

---

- target_entity: human GHSR1a (Homo sapiens, UniProt Q92847)
- Construct: expressed in transfected cells
- Sequence (Q92847 whole entry): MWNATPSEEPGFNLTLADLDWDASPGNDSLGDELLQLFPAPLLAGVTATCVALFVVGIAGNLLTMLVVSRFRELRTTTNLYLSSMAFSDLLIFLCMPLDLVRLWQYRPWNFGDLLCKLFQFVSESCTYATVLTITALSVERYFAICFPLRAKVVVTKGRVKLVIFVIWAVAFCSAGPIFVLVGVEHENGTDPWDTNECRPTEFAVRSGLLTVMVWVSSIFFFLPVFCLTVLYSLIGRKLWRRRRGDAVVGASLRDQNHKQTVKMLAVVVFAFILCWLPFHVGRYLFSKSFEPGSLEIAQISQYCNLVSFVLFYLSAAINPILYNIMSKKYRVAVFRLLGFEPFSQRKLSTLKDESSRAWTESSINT
- method: Aequorin luminescent functional assay (intracellular Ca2+, ghrelin-stimulated)
- condition_details: stable cell line expressing human GHSR1a and apoaequorin; final ghrelin 3x EC50 (20 nM); read-out: Class (based on IC50 values)
- Experimental: IC50 values of inventive compounds may be assessed as follows. An aequorin (Euroscreen) luminescent assay (Stabels et al., 1997) measuring the intracellular Ca^2+ concentration was used as the functional assay to evaluate the potency of the compounds. […] 50 μL of the cell suspension was added to each well of a 96-well plate containing 50 μL of compound, diluted in HyClone Medium. […] IC50 of the compounds in this assay was calculated with Prism 4.
pIC50: −log10 of the molar value.
The compounds listed here are annotated with their pIC50.

Would you please look over these solved cases?
>  <compound>
CCc1ccccc1Oc1ccc2c(c1)C(=O)N(C(C(=O)N1CCC(NC3CC3)CC1)C(C)C)CC(=O)N2 (stereo not shown)

>  <pIC50>
7.30 to 8.00

$$$$
>  <compound>
Cc1cccc(C)c1Oc1ccc2c(c1)C(=O)N([C@@H](C(=O)N1CCC(NC(C)c3ccccc3)CC1)C(C)C)CC(=O)N2 (stereo partly shown)

>  <pIC50>
≥ 8.00

$$$$
>  <compound>
CC(C)C(C(=O)N1CCC(NCCc2ccc(F)cc2)CC1)N1CC(=O)Nc2ccc(Oc3ccccc3C(C)(C)C)cc2C1=O (stereo not shown)

>  <pIC50>
6.30 to 7.30

$$$$

Observed pIC50 on human GHSR1a (Homo sapiens, UniProt Q92847) for O=C1c2cc(Oc3ccc(F)cc3F)ccc2CCN1[C@@H](c1cccc(CNC2CC2)n1)C1CC1 , please. ≥ 8.00
